Each record here notes measured viability.
assay: drug combination growth inhibition, ovarian cancer – cell-based, oncology-focused library, rucaparib conditional, profiling panel (AID 1508598); conditions: patient-derived ovarian cancer cells, CellTiter-Glo viability, 144 h; at 0.000305 µM; OCI-C5x cells; without rucaparib; stronger effect = lower value
All answers are understood in %, so give the number only.

[[record]]
compound = "Cn1cc(-c2ccc3nnc(C(F)(F)c4ccc5ncccc5c4)n3n2)cn1"
recorded_measurement = 90.8


Enquiry: GET /values?readout=viability&item= CNc1nc(-c2ccc3c(N)n[nH]c3c2)cc(N2C[C@@H](C(=O)NC3CCCCC3)CC[C@H]2C)n1
Return: 113

Enquiry: # query: viability of entry CC1(COc2ccc3c(c2)ncn3-c2ccc3cccc(N4CCC(N)CC4)c3n2)COC1
Return: 122

Enquiry: Could you tell me which viability is on file for CCNC(=O)c1noc(-c2cc(C(C)C)c(O)cc2O)c1-c1ccc(CN2CCOCC2)cc1 ?
Return: 129

Enquiry: What does the record list as viability for COc1c(C)cnc(Cn2cnc3c(Cl)nc(N)nc32)c1C ?
Return: 104

Enquiry: Dear colleague, I am looking for the recorded viability of the following compound: CN(C)Cc1c(C(=O)NCCOc2ccc(C(=O)NO)cc2)oc2ccccc12
Return: 128

Enquiry: Requested field: viability. Item: C[C@@H](Oc1cc(-c2cnn(C3CCNCC3)c2)cnc1N)c1c(Cl)ccc(F)c1Cl
Return: 131
